Provenance of the data: paper PMC9601613

Consider the following molecules and their measured koff readings.
testSystem: RpsL12 (ribosomal protein S12) (Lysinibacillus sphaericus, UniProt B1HMZ3)
Construct: gene rpsL; isolated ribosomal protein without rRNA; 426 bp gene in pET32a(+), purified from soluble fraction of E. coli BL21
Sequence (B1HMZ3 1-139): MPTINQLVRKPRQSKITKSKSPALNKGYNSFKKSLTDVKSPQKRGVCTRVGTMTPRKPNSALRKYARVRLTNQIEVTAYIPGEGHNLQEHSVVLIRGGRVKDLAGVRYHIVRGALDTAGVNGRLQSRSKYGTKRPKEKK
assayExplanation: biochemical
Set-up: surface plasmon resonance, binding kinetics and equilibrium dissociation constant of aminoglycosides to RpsL12
assayConditions: read-out: Kd
Provide the reading as a plain figure in s⁻¹.

molecule | testSystem | unitTag | observedValue
CCNC1CC(N)C(OC2OC(CN)=CCC2N)C(O)C1OC1OCC(C)(O)C(NC)C1O (stereo not drawn) [netimicin] | RpsL12 (ribosomal protein S12) (Lysinibacillus sphaericus, UniProt B1HMZ3) | s⁻¹ | 0.00141
CCN[C@@H]1C[C@H](N)[C@@H](O[C@H]2O[C@H](CN)CC[C@H]2N)[C@H](O)[C@H]1O[C@H]1OC[C@](C)(O)[C@H](NC)[C@H]1O [etimicin] | RpsL12 (ribosomal protein S12) (Lysinibacillus sphaericus, UniProt B1HMZ3) | s⁻¹ | 0.0195

koff reported for this molecule NC[C@@H]1O[C@H](O[C@H]2[C@@H](O)[C@H](O[C@@H]3[C@@H](O)[C@H](N)C[C@H](N)[C@H]3O[C@H]3O[C@H](CN)[C@@H](O)[C@H](O)[C@H]3N)O[C@@H]2CO)[C@H](N)[C@@H](O)[C@@H]1O [neomycin] : 4.7e-05
